Recorded values, source BigSolDB 2.1.

recorded conditions: in acetone, 288.15 K
readout: solubility (mole fraction)

O=C(O)CCCCCCC(=O)O :: 0.0092
O=C(O)CCCCCC(=O)O :: 0.0546

A = O=C(O)CCCC(=O)O
B = O=C(O)CCCCCCCC(=O)O
-- ask Between the entries labeled A and B , whose measured solubility (mole fraction) is lower? Identify your pick by its label.
-- reply B
(B: 0.029, A: 0.183)

###

recorded conditions: in ethanol, 303.15 K
readout: solubility (mole fraction)

O=C(O)CCCCCC(=O)O :: 0.126
O=C(O)CCCCCCC(=O)O :: 0.0375

A = O=C(O)CCCC(=O)O
B = O=C(O)CCCCCCCC(=O)O
-- ask Between these two entries, A and B , state which has the higher solubility (mole fraction). State the label of the item chosen.
-- reply A
(A: 0.201, B: 0.0851)
